Listing of recorded cell viability by entry.
# System: SEM cells
# testProtocol: cell viability relative to DMSO control; higher = less cytotoxic
# experimentalConditions: RPMI 5 mM glucose + 10% dialyzed FBS; 48 h; 0.0632 µM
Give me the value, and tack the unit on after it.

Below, 5 molecules whose answers are already recorded.
1. CN1\C(=C(\O)C2=CC=CC=C2[S+]1([O-])=O)C(=O)NC3=NC=C(C)S3    80.7%
2. CN1CCN(c2ccc([N+](=O)[O-])c3no[n+]([O-])c23)CC1    85.2%
3. COc1cc2ncnc(Nc3cc(Br)c(O)c(Br)c3)c2cc1OC    113%
4. CNC(=O)c1ccc(N2C(=S)N(c3ccc(C#N)c(C(F)(F)F)c3)C(=O)C23CCC3)cc1F    102%
5. CC1(C)O[C@@H]2C[C@H]3[C@@H]4CCC5=CC(=O)C=C[C@]5(C)[C@H]4[C@@H](O)C[C@]3(C)[C@]2(C(=O)CO)O1    80%

Find the recorded cell viability belonging to `COc1ncc(-c2ccc3nccc(-c4ccnnc4)c3c2)cc1N[S+](=O)([O-])c1ccc(F)cc1F` and report it.
64.6%

Find the recorded cell viability belonging to OC1CCC(Nc2ncc3nc(Nc4c(F)cc(F)cc4F)n([C@@H]4CCOC4)c3n2)CC1 (some centres undefined) and report it.
112%

Find the recorded cell viability belonging to `CNC[C@H](O)c1ccc(O)c(O)c1` and report it.
93.3%

Find the recorded cell viability belonging to `Cc1c(NC(=O)OC[C@@H]2COCCN2)cn2ncnc(Nc3ccc4c(cnn4Cc4cccc(F)c4)c3)c12` and report it.
74.8%

Find the recorded cell viability belonging to `Nc1ncnc2c1c(-c1cnc3[nH]ccc3c1)nn2C1CCCC1` and report it.
129%

====

# Test system: P12-Ichikawa
# testProtocol: cell viability relative to DMSO control; higher = less cytotoxic
# experimentalConditions: HPLM + 10% dialyzed FBS; 48 h; 0.569 µM
endpointLabel: cell viability (%)
Give a bare numeral; the unit % is implied.

Below, 4 compounds whose answers are already recorded.
1) Cc1cc2c(F)c(Oc3ncnn4cc(OC[C@@H](C)O)c(C)c34)ccc2[nH]1    97.2
2) O=C(NC[C@H](O)CO)c1ccncc1Nc1ccc(I)cc1F    102
3) O=C(Nc1ccc(F)c(C(F)(F)F)c1)Nc1nnc(-c2ccncc2)s1    120
4) CC(N)C12CC3CC(CC(C3)C1)C2 (stereo not drawn)    111

Find the recorded cell viability belonging to `COC(=O)[C@@H]1[C@H]2C[C@H]3c4[nH]c5ccccc5c4CCN3C[C@@H]2CC[C@@H]1O` and report it.
121

====

# System: NOMO1
# testProtocol: cell viability relative to DMSO control; higher = less cytotoxic
# experimentalConditions: RPMI 5 mM glucose + 10% FBS; 48 h; 0.0632 µM
Listing of recorded cell viability by entry.
Give a bare numeral; the unit % is implied.

1. O=C(c1ccc(Nc2nccc(-c3cc4ccccc4s3)n2)cc1)N1CCC(N2CCCC2)CC1    106
2. O=C(Nc1ccccc1-c1cn2c(CN3CCNCC3)csc2n1)c1cnc2ccccc2n1    79.7
3. CNC[C@H](O)c1ccc(O)c(O)c1    84.6

Now look at this one.
Find the recorded cell viability belonging to `C=C[C@H]1CN2CC[C@H]1C[C@H]2[C@H](O)c1ccnc2ccc(OC)cc12` and report it.
103
